IC50 for assorted molecules
# TGT: recombinant thrombin (Homo sapiens)
# ASSAY_NAME: Chromogenic kinetic enzyme assay of thrombin (S2238)
# Format: biochemical
# TEST_PARAMETERS: Table 2; chromogenic assay; read-out: Thrombin* (IC50 nM)

{"MOLECULE": "CC(=O)N[C@H]1CC(=O)NCCCC[C@@H](C(=O)N[C@@H](CCCNC(=N)N)C(=O)c2nccs2)NC(=O)[C@H](CC(C)C)NC1=O", "IC50": "7940 nM"}
{"MOLECULE": "CSCC[C@@H]1NC(=O)[C@@H](NC(C)=O)CC(=O)NCCCC[C@@H](C(=O)N[C@@H](CCCNC(=N)N)C(=O)c2nc3ccccc3s2)NC1=O", "IC50": "> 20000 nM"}
{"MOLECULE": "CC(=O)N[C@H]1CC(=O)NCCCC[C@@H](C(=O)N[C@@H](CCCNC(=N)N)C(=O)c2nc3ccccc3s2)NC(=O)CNC1=O", "IC50": "> 20000 nM"}
{"MOLECULE": "CC(=O)N[C@H]1CC(=O)NCCCC[C@@H](C(=O)N[C@@H](CCCNC(=N)N)C(=O)c2nc3ccccc3s2)NC(=O)[C@H](C)NC1=O", "IC50": "> 20000 nM"}
{"MOLECULE": "CC(=O)N[C@H]1CC(=O)N(C)CCCC[C@@H](C(=O)N[C@@H](CCCNC(=N)N)C(=O)c2nc3ccccc3s2)NC(=O)[C@H](CC(C)C)NC1=O [VD4192B]", "IC50": "17100 nM"}

### Prompt Kindly indicate its recorded IC50. Item: CC(=O)N[C@H]1Cc2ccc(cc2)OCCCC[C@@H](C(=O)N[C@@H](CCCNC(=N)N)C(=O)c2nc3ccccc3s2)NC(=O)[C@@H](Cc2c[nH]c3ccccc23)NC1=O [VD4162A]
### Response > 20000 nM

### Prompt State its IC50 for this molecule: CC(=O)N[C@H]1CCCCNC(=O)CCC(C(=O)N[C@@H](CCCNC(=N)N)C(=O)c2nc3ccccc3s2)NC(=O)[C@H](CCCNC(=N)N)NC1=O (some centres unmarked) [VD2109B]
### Response > 20000 nM

### Prompt Query IC50 for CC(=O)N[C@H]1Cc2ccc(cc2)OCCCC[C@@H](C(=O)N[C@@H](CCCNC(=N)N)C(=O)c2nc3ccccc3s2)NC(=O)[C@@H](Cc2c[nH]c3ccccc23)NC1=O [VD4162B]
### Response 14600 nM
